EXPERIMENTAL PROTOCOL: physchem
CONDITIONS: FaSSIF-V2, 37 °C, fassif, thermodynamic from solid
VALUE KIND: solubility at 24 h (µg/mL)
// return numeric value only (unit: µg/mL, not printed)

Any idea what solubility at 24 h was measured for [2H]C([2H])(Cc1nc(-c2ccccc2)oc1C)Oc1ccc(C[C@H](OC)C(=O)O)c2sccc12 [free acid Form B] ? 290

###

EXPERIMENTAL PROTOCOL: physchem
CONDITIONS: pH 6.8 buffer (K2HPO3 + KH2PO3), 37 °C, pH 6.8, aqueous buffer, thermodynamic from solid
VALUE KIND: solubility at 2 h (µg/mL)
Write down the numeric answer in µg/mL and omit the unit.

# solubility at 2 h lookup, item [2H]C([2H])(Cc1nc(-c2ccccc2)oc1C)Oc1ccc(C[C@H](OC)C(=O)O)c2sccc12 [free acid Form B] 150

###

Listed here are molecules together with their documented HPLC Purity (area %), main peak RRT 1.00.
CONDITIONS: 40° C./75% RH/open, 2 weeks
Use area % as the unit, but write only the number.

[2H]C([2H])(Cc1nc(-c2ccccc2)oc1C)Oc1ccc(C[C@H](OC)C(=O)O)c2sccc12 [free acid Form E] = 99.08
N=C(N)NCCCC(N)C(=O)O.[2H]C([2H])(Cc1nc(-c2ccccc2)oc1C)Oc1ccc(C[C@H](OC)C(=O)O)c2sccc12 [arginine salt Form A] = 99.59
[2H]C([2H])(Cc1nc(-c2ccccc2)oc1C)Oc1ccc(C[C@H](OC)C(=O)[O-])c2sccc12.[K+] [K salt Form C] = 99.76

Sample [2H]C([2H])(Cc1nc(-c2ccccc2)oc1C)Oc1ccc(C[C@H](OC)C(=O)[O-])c2sccc12.[Na+] [Na salt Form A] — what was its HPLC Purity (area %), main peak RRT 1.00? 99.71

###

EXPERIMENTAL PROTOCOL: physchem
CONDITIONS: water, 37 °C, thermodynamic from solid
VALUE KIND: solubility at 2 h (mg/mL)
Give the number; mg/mL is assumed, so skip it.

// solubility at 2 h lookup, key: [2H]C([2H])(Cc1nc(-c2ccccc2)oc1C)Oc1ccc(C[C@H](OC)C(=O)O)c2sccc12 [free acid Form B] 0.036

###

EXPERIMENTAL PROTOCOL: physchem
CONDITIONS: FeSSIF-V2, 37 °C, fessif, thermodynamic from solid
VALUE KIND: solubility at 24 h (µg/mL)
Your answer should be a plain number; it is taken to be in µg/mL.

So what does the record say about solubility at 24 h for [2H]C([2H])(Cc1nc(-c2ccccc2)oc1C)Oc1ccc(C[C@H](OC)C(=O)O)c2sccc12 [free acid Form B] ? 650

###

Listed here are molecules together with their documented HPLC Reults of initial (%).
CONDITIONS: 40° C./75% RH/open, 8 weeks
Respond with the bare value in %.

Here is how some molecules turned out for HPLC Reults of initial (%).
[2H]C([2H])(Cc1nc(-c2ccccc2)oc1C)Oc1ccc(C[C@H](OC)C(=O)O)c2sccc12 [free acid Form E] = 100.02
N=C(N)NCCCC(N)C(=O)O.[2H]C([2H])(Cc1nc(-c2ccccc2)oc1C)Oc1ccc(C[C@H](OC)C(=O)O)c2sccc12 [arginine salt Form A] = 100.02
[2H]C([2H])(Cc1nc(-c2ccccc2)oc1C)Oc1ccc(C[C@H](OC)C(=O)[O-])c2sccc12.[Na+] [Na salt Form A] = 100.03

Which HPLC Reults of initial (%) value is on record for [2H]C([2H])(Cc1nc(-c2ccccc2)oc1C)Oc1ccc(C[C@H](OC)C(=O)[O-])c2sccc12.[K+] [K salt Form C] ? 100.00

###

# reported HPLC Reults of initial (%); entries follow
CONDITIONS: 60° C./close, 2 weeks

[2H]C([2H])(Cc1nc(-c2ccccc2)oc1C)Oc1ccc(C[C@H](OC)C(=O)[O-])c2sccc12.[K+] [K salt Form C] = 99.82%
[2H]C([2H])(Cc1nc(-c2ccccc2)oc1C)Oc1ccc(C[C@H](OC)C(=O)[O-])c2sccc12.[Na+] [Na salt Form A] = 99.65%
[2H]C([2H])(Cc1nc(-c2ccccc2)oc1C)Oc1ccc(C[C@H](OC)C(=O)O)c2sccc12 [free acid Form E] = 100.03%

For the next question, use this molecule.
So what's the measured HPLC Reults of initial (%) for this one? N=C(N)NCCCC(N)C(=O)O.[2H]C([2H])(Cc1nc(-c2ccccc2)oc1C)Oc1ccc(C[C@H](OC)C(=O)O)c2sccc12 [arginine salt Form A] 100.04%

###

CONDITIONS: 40° C./75% RH/open, 4 weeks
The compounds listed here are annotated with their HPLC Reults of initial (%).
A number alone suffices; assume %.

May I ask what HPLC Reults of initial (%) has been recorded for [2H]C([2H])(Cc1nc(-c2ccccc2)oc1C)Oc1ccc(C[C@H](OC)C(=O)O)c2sccc12 [free acid Form E] ? 99.99

Now the same for N=C(N)NCCCC(N)C(=O)O.[2H]C([2H])(Cc1nc(-c2ccccc2)oc1C)Oc1ccc(C[C@H](OC)C(=O)O)c2sccc12 [arginine salt Form A] 99.98

Ok, now [2H]C([2H])(Cc1nc(-c2ccccc2)oc1C)Oc1ccc(C[C@H](OC)C(=O)[O-])c2sccc12.[Na+] [Na salt Form A] 100.02

Let us now turn to [2H]C([2H])(Cc1nc(-c2ccccc2)oc1C)Oc1ccc(C[C@H](OC)C(=O)[O-])c2sccc12.[K+] [K salt Form C] 100.00

###

CONDITIONS: Initial
VALUE KIND: HPLC Purity (area %), main peak RRT 1.00
Write it as a number; the unit area % goes unstated.

Reported HPLC Purity (area %), main peak RRT 1.00 for [2H]C([2H])(Cc1nc(-c2ccccc2)oc1C)Oc1ccc(C[C@H](OC)C(=O)O)c2sccc12 [free acid Form E] : what is it? 99.01

Also N=C(N)NCCCC(N)C(=O)O.[2H]C([2H])(Cc1nc(-c2ccccc2)oc1C)Oc1ccc(C[C@H](OC)C(=O)O)c2sccc12 [arginine salt Form A] ? 99.72

Also check [2H]C([2H])(Cc1nc(-c2ccccc2)oc1C)Oc1ccc(C[C@H](OC)C(=O)[O-])c2sccc12.[Na+] [Na salt Form A] 99.68

Proceed to [2H]C([2H])(Cc1nc(-c2ccccc2)oc1C)Oc1ccc(C[C@H](OC)C(=O)[O-])c2sccc12.[K+] [K salt Form C] 99.75

###

CONDITIONS: 40° C./75% RH/open, 4 weeks
VALUE KIND: HPLC Purity (area %), main peak RRT 1.00
Answer format: numeric, area % implied, no suffix.

As a guide, the following entries are already answered.
[2H]C([2H])(Cc1nc(-c2ccccc2)oc1C)Oc1ccc(C[C@H](OC)C(=O)[O-])c2sccc12.[K+] [K salt Form C] = 99.75
N=C(N)NCCCC(N)C(=O)O.[2H]C([2H])(Cc1nc(-c2ccccc2)oc1C)Oc1ccc(C[C@H](OC)C(=O)O)c2sccc12 [arginine salt Form A] = 99.70
[2H]C([2H])(Cc1nc(-c2ccccc2)oc1C)Oc1ccc(C[C@H](OC)C(=O)O)c2sccc12 [free acid Form E] = 99.00

Kindly consider the entry below.
I have this molecule here, [2H]C([2H])(Cc1nc(-c2ccccc2)oc1C)Oc1ccc(C[C@H](OC)C(=O)[O-])c2sccc12.[Na+] [Na salt Form A] , and I need its recorded HPLC Purity (area %), main peak RRT 1.00. 99.69

###

CONDITIONS: 60° C./close, 4 weeks
VALUE KIND: HPLC Purity (area %), main peak RRT 1.00
The reply must contain the numeric value and, after it, the unit.

Record excerpt, results attached:
[2H]C([2H])(Cc1nc(-c2ccccc2)oc1C)Oc1ccc(C[C@H](OC)C(=O)O)c2sccc12 [free acid Form E] = 98.89 area %
N=C(N)NCCCC(N)C(=O)O.[2H]C([2H])(Cc1nc(-c2ccccc2)oc1C)Oc1ccc(C[C@H](OC)C(=O)O)c2sccc12 [arginine salt Form A] = 99.73 area %
[2H]C([2H])(Cc1nc(-c2ccccc2)oc1C)Oc1ccc(C[C@H](OC)C(=O)[O-])c2sccc12.[K+] [K salt Form C] = 99.64 area %

// next item, HPLC Purity (area %), main peak RRT 1.00 requested
Name the recorded HPLC Purity (area %), main peak RRT 1.00 for [2H]C([2H])(Cc1nc(-c2ccccc2)oc1C)Oc1ccc(C[C@H](OC)C(=O)[O-])c2sccc12.[Na+] [Na salt Form A] . 98.91 area %

###

EXPERIMENTAL PROTOCOL: physchem
CONDITIONS: FeSSIF-V2, 37 °C, fessif, thermodynamic from solid
VALUE KIND: solubility at 2 h

May I ask what solubility at 2 h has been recorded for [2H]C([2H])(Cc1nc(-c2ccccc2)oc1C)Oc1ccc(C[C@H](OC)C(=O)O)c2sccc12 [free acid Form B] ? 630 µg/mL

From: patent US20260234135A1
